Target: T1, human Trophoblast cell surface antigen 2 (TROP2) (human, UniProt P09758 27-274, limits assumed)
T1 construct: Analyte in the SPR experiments and immunogen; also called human TROP2
T1 sequence: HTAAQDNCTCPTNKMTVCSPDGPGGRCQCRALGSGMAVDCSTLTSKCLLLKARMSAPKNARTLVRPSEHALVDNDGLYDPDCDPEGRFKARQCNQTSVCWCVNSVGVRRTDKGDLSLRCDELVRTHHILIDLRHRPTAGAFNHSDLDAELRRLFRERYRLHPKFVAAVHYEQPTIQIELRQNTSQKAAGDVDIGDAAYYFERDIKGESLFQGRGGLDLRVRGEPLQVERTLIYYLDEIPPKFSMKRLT
Assay: SPR affinity ranking, human TROP2
I'd appreciate it if you could supply koff values for the items below.
Numbers only, in s⁻¹.

Below, 8 binders whose answers are already recorded.
[[record]]
binder = "HC3/LC3 (antibody, human IgG1, kappa, V domains shown, Humanized anti-TROP2 antibody) VH: QVQLVQSGAEVKKPGASVKVSCKASGYTFTDYSINWVRQAPGQRLEWMGVISTYYGDASYNQKFKGRVTITRDTSASTAYMELSSLRSEDTAVYYCARYGDGYNQFDYWGQGTLVTVSS VL: DIVMTQSPLSLPVTPGEPASISCRVSESVDSYGNNFMHWYLQKPGQSPQLLIYRASNLESGVPDRFSGSGSGTDFTLKISRVEAEDVGVYYCQQSYEDPYTFGGGTKVEIKR"
recorded_measurement = 0.000159

[[record]]
binder = "HC5/LC3 (antibody, human IgG1, kappa, V domains shown, Humanized anti-TROP2 antibody) VH: EVQLVQSGAEVKKPGESLKISCKGSGYTFTDYSINWVRQMPGKGLEWMGVISTYYGDASYNQKFKGQVTISADKSISTAYLQWSSLKASDTAMYYCARYGDGYNQFDYWGQGTLVTVSS VL: DIVMTQSPLSLPVTPGEPASISCRVSESVDSYGNNFMHWYLQKPGQSPQLLIYRASNLESGVPDRFSGSGSGTDFTLKISRVEAEDVGVYYCQQSYEDPYTFGGGTKVEIKR"
recorded_measurement = 0.000266

[[record]]
binder = "HC4/LC4 (antibody, human IgG1, kappa, V domains shown, Humanized anti-TROP2 antibody) VH: QVQLVQSGAEVKKPGSSVKVSCKASGYTFTDYSINWVRQAPGQGLEWMGVISTYYGDASYNQKFKGRVTITADESTSTAYMELSSLRSEDTAVYYCARYGDGYNQFDYWGQGTLVTVSS VL: EIVLTQSPATLSLSPGERATLSCRVSESVDSYGNNFMHWYQQKPGQAPRLLIYRASNLESGIPARFSGSGSGTDFTLTISSLEPEDFAVYYCQQSYEDPYTFGGGTKVEIKR"
recorded_measurement = "8.88e-05"

[[record]]
binder = "HC3/LC5 (antibody, human IgG1, kappa, V domains shown, Humanized anti-TROP2 antibody) VH: QVQLVQSGAEVKKPGASVKVSCKASGYTFTDYSINWVRQAPGQRLEWMGVISTYYGDASYNQKFKGRVTITRDTSASTAYMELSSLRSEDTAVYYCARYGDGYNQFDYWGQGTLVTVSS VL: DIQMTQSPSSLSASVGDRVTITCRVSESVDSYGNNFMHWYQQKPGKAPKLLIYRASNLESGVPSRFSGSGSGTDFTFTISSLQPEDIATYYCQQSYEDPYTFGGGTKLEIKR"
recorded_measurement = 0.000151

[[record]]
binder = "HC3/LC1 (antibody, human IgG1, kappa, V domains shown, Humanized anti-TROP2 antibody) VH: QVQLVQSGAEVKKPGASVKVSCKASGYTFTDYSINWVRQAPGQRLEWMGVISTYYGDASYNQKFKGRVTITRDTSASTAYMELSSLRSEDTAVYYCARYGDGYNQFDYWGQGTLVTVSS VL: DIVMTQSPDSLAVSLGERATINCRVSESVDSYGNNFMHWYQQKPGQPPKLLIYRASNLESGVPDRFSGSGSGTDFTLTISSLQAEDVAVYYCQQSYEDPYTFGQGTKLEIKR"
recorded_measurement = 0.00011

[[record]]
binder = "HC2/LC2 (antibody, human IgG1, kappa, V domains shown, Humanized anti-TROP2 antibody) VH: QVQLVQSGAEVKKPGASVKVSCKASGYTFTDYSINWVRQAPGQGLEWMGVISTYYGDASYNQKFKGRVTMTRDTSTSTVYMELSSLRSEDTAVYYCARYGDGYNQFDYWGQGTLVTVSS VL: DVVMTQSPLSLPVTLGQPASISCRVSESVDSYGNNFMHWFQQRPGQSPRRLIYRASNLESGVPDRFSGSGSGTDFTLKISRVEAEDVGVYYCQQSYEDPYTFGGGTKVEIKR"
recorded_measurement = 0.0251

[[record]]
binder = "HC3/LC4 (antibody, human IgG1, kappa, V domains shown, Humanized anti-TROP2 antibody) VH: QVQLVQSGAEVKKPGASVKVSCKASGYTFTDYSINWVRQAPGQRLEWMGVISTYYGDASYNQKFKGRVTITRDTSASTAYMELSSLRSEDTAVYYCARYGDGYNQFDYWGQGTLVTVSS VL: EIVLTQSPATLSLSPGERATLSCRVSESVDSYGNNFMHWYQQKPGQAPRLLIYRASNLESGIPARFSGSGSGTDFTLTISSLEPEDFAVYYCQQSYEDPYTFGGGTKVEIKR"
recorded_measurement = 0.000192

[[record]]
binder = "HC5/LC5 (antibody, human IgG1, kappa, V domains shown, Humanized anti-TROP2 antibody) VH: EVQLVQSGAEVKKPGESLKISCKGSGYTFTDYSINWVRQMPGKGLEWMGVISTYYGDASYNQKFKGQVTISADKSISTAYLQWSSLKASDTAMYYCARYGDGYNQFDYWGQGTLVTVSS VL: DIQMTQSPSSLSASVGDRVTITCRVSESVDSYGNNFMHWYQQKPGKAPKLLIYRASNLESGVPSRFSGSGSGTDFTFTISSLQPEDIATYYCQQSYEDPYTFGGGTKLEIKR"
recorded_measurement = 0.000338


Could I get koff for every one of these entries?
1. HC2/LC5 (antibody, human IgG1, kappa, V domains shown, Humanized anti-TROP2 antibody) VH: QVQLVQSGAEVKKPGASVKVSCKASGYTFTDYSINWVRQAPGQGLEWMGVISTYYGDASYNQKFKGRVTMTRDTSTSTVYMELSSLRSEDTAVYYCARYGDGYNQFDYWGQGTLVTVSS VL: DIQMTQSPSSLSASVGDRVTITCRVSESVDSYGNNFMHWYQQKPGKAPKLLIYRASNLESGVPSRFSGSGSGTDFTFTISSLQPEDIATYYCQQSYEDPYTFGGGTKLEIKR
2. HC1/LC3 (antibody, human IgG1, kappa, V domains shown, Humanized anti-TROP2 antibody) VH: QVQLVQSGAEVKKPGASVKVSCKASGYTFTDYSINWVRQAPGQGLEWMGVISTYYGDASYNQKFKGRVTMTTDTSTSTAYMELRSLRSDDTAVYYCARYGDGYNQFDYWGQGTMVTVSS VL: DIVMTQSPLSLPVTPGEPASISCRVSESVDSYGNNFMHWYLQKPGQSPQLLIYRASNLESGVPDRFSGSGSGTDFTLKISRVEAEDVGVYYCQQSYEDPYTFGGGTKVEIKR

Data returned:
7.38e-05
0.000196
